Reference source for all entries: paper PMC11434980

test system: parasitic females of S. venezuelensis; test: In vitro activity against adult females (movement categories); assay type: cell-based, Strongyloides venezuelensis; conditions: 10 µM, 72 h, 50–70 worms per well
Assay Metric: Activity against parasitic females 72 h

>>> print(df.to_string())
                           smiles_structure                         assayed_target             result
0  CN(C)c1ccc(C(=C2C=CC(=[N+](C)C)C=C2)c2ccc(N(C)C)cc2)cc1  parasitic females of S. venezuelensis  Slightly affected
1     CN(C)c1ccc2nc3ccc(=[N+](C)C)cc-3sc2c1  parasitic females of S. venezuelensis              Death
2            CCCSc1ccc2nc(NC(=O)OC)[nH]c2c1  parasitic females of S. venezuelensis  Slightly affected
3   COC(=O)Nc1nc2ccc(C(=O)c3ccccc3)cc2[nH]1  parasitic females of S. venezuelensis  Slightly affected
